tested system: T1, Spy_(27-124) (UniProt P77754 50-147)
T1 construct: source: E. coli BL21 (DE3), purified (Ni-NTA, cation exchange, SEC); not shown: His6, N-terminal, cleaved; SUMO, N-terminal, cleaved
T1 sequence (looked up): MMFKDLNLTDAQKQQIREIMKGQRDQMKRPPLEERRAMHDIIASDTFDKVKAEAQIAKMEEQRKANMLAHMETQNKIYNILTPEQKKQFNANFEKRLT
experiment description: BLI; Octet RED96; client biotinylated and loaded on streptavidin sensors; Spy or Spy variant in solution at 0.25, 0.5, 1, 1.5 and 2 μM; 40 mM HEPES, 150 mM NaCl, pH 7.5; Kd calculated as koff/kon
test settings: both partners purified
parameter measured: Kd (nM)

{"columns": ["binder", "parameter measured", "quantitative result"],
 "data": [
  ["Im7 H40W L53A I54A (natural protein, biotin (EZ-link NHS-biotin, 1:1 molar ratio of biotin to protein), Im7 (colicin E7 immunity protein) with H40W L53A I54A; Spy was made with an N-terminal His6-SUMO tag that was cleaved; also called Im7AAW; partially folded client; source: purified by a similar procedure to Spy) MELKNSISDYTEAEFVQLLKEIEKENVAATDDVLDVLLEWFVKITEHPDGTDAAYYPSDNRDDSPEGIVKEIKEWRAANGKPGFKQG", "Kd", 283]
]}

These entries and their values trace back to paper PMC9122904.
